Kindly state DR/DR LNA for each of the entries shown.
Test: Probe fluorescence ratio response to linolenic acid relative to ADIFAB2
Format: binding
Conditions: response relative to ADIFAB2
Numbers only.

Sample records with DR/DR LNA:
molecule | DR/DR LNA
34Y, 72A (protein, listed as Rattus norvegicus, PEPTIDE (1)...(131) wild-type rat intestinal fatty acid binding protein) AFDGTWKVDRNENYEKFMEKMGINVVKRKLGAHYNLKLTITQEGNKFTVKESSNFRNIDVVFELGVDFAYSAADGTELTGTWTMEGNKLVGKFKRVDNGKELIAVREISGNELIQTYTYEGVEAKRIFKKE | 1.22
72T 73V 74S (protein, listed as Rattus norvegicus, PEPTIDE (1)...(131) wild-type rat intestinal fatty acid binding protein) AFDGTWKVDRNENYEKFMEKMGINVVKRKLGAHDNLKLTITQEGNKFTVKESSNFRNIDVVFELGVDFAYSTVSGTELTGTWTMEGNKLVGKFKRVDNGKELIAVREISGNELIQTYTYEGVEAKRIFKKE | 2.579

Ask | Which measured DR/DR LNA value corresponds to 11I, 72A (protein, listed as Rattus norvegicus, PEPTIDE (1)...(131) wild-type rat intestinal fatty acid binding protein) AFDGTWKVDRIENYEKFMEKMGINVVKRKLGAHDNLKLTITQEGNKFTVKESSNFRNIDVVFELGVDFAYSAADGTELTGTWTMEGNKLVGKFKRVDNGKELIAVREISGNELIQTYTYEGVEAKRIFKKE ?
Reply | 0.507
